target: Histamine H3 receptor (Cavia porcellus); test: Functional Histamine H3 receptor antagonistic activity in vitro assay on guinea pig ileum; format: tissue-based; conditions: read-out: pA2 (converted)
Sequence (Q9JI35 whole entry): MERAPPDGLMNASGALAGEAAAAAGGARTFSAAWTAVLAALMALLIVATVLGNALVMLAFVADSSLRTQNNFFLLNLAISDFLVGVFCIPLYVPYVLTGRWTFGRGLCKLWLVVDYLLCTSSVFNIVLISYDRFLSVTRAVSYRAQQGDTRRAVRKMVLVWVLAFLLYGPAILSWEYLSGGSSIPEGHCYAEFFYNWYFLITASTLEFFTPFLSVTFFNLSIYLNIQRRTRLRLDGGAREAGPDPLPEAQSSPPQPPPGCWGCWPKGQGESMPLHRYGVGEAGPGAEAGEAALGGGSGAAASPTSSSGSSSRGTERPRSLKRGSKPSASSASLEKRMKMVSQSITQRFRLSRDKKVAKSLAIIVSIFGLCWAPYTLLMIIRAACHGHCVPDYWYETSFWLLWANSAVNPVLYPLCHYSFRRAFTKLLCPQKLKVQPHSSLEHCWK
Kindly supply the reported Kb values for the records listed here.
Please give a number only; it is taken to be in nM.

Name the recorded Kb for C#CCCCOCCCc1c[nH]cn1 .
316

Another: CCCCCCCOCCCc1c[nH]cn1
15.8

Another: O=C(O)/C=C\C(=O)O.c1nc(CCCOCCCC2CCCC2)c[nH]1
15.8

Another: CCCCCCOCCCc1c[nH]cn1.O=C(O)/C=C\C(=O)O
39.8

Another: CCCCCCCCOCCCc1c[nH]cn1.O=C(O)/C=C\C(=O)O
100

Another: CCCCCOCCCc1c[nH]cn1.O=C(O)/C=C\C(=O)O
63.1
